# System: MS2 coat protein
# assay name: apparent KD of MS2 coat protein; designed switch direction (-1 OFF switch, 1 ON switch): 1; higher = weaker reporter binding
# measurement conditions: input ligand: FMN 200 uM
readout: apparent KD of MS2 coat protein (nM)

[
  {
    "residues": "AUGCCAAAUCGAGGAUAUGGAGCCUUAUUGGCUCCAGAAGGUGAGACAUGAGGAUCACCCAUGUGGCAGUGGUCUAAUGACCAC [Fiskers NG1ss - 32] (Eterna round: R96, puzzle: Same State NG 1)",
    "readout": "apparent KD of MS2 coat protein",
    "observed result": 174
  },
  {
    "residues": "GCGUUUAACGUAGGAUAUCGACCUACAUGAGGAUCACCCAUGUCUUUGUAUAGUUUUUUUUGUUACGAGAAGGACGUUUUGCAU [JR_SSNG2_Sub070] (Eterna round: R96, puzzle: Same State NG 2)",
    "readout": "apparent KD of MS2 coat protein",
    "observed result": 75.1
  },
  {
    "residues": "UUAUCUCUUACAUGAGGAUCACCCAUGUUUUUAUGUCUUAGACAGGAUAUAGUAGUCUCGUUUUACUAGAAGGGUCUUUUUAUU [JR_SSNG3_Sub019] (Eterna round: R96, puzzle: Same State NG 3)",
    "readout": "apparent KD of MS2 coat protein",
    "observed result": 28.9
  },
  {
    "residues": "AAAGUGCCGACGAAGGAUAUAGCGGGUGAGACAUGAGGAUCACCCAUGUAUGCAGAACUCAUCCUCUAGAAGGUUGAGACGGCUA [Bionlateat] (Eterna round: R96, puzzle: Same State 2)",
    "readout": "apparent KD of MS2 coat protein",
    "observed result": 151
  },
  {
    "residues": "GACUGCGUUAUGAAGGAUAUCCGCGUCUGGACAUGAGGAUCACCCAUGUAUACUUGGAUCGUGCAGGAGAAGGUCAAGGGUGAUU [JR_SS002_Sub1210] (Eterna round: R96, puzzle: Same State 2)",
    "readout": "apparent KD of MS2 coat protein",
    "observed result": 507
  },
  {
    "residues": "GCUAGGAAAGAAGCCAACAUGAGGAUCACCCAUGUAUGUUGGUAGGAUAUCGUAUGCAAAGCAUACGAGAAGGGCUAACCUAGC [Mat - Same State NG 3 - JL Mod - D74] (Eterna round: R96, puzzle: Same State NG 3)",
    "readout": "apparent KD of MS2 coat protein",
    "observed result": 127
  },
  {
    "residues": "CGUCCCUCCACAGGAUAUCGACCAUUAAAACGGCGAGAAGGGUGGCCACAUGAGGAUCACCCAUGUGGAAUUGGACAAGCUACC [Veonso] (Eterna round: R96, puzzle: Same State NG 1)",
    "readout": "apparent KD of MS2 coat protein",
    "observed result": 127
  },
  {
    "residues": "GCUACAUGAGGAUCACCCAUGUGUGCGUGGGAGUGAGUGGCUUAGGAUAUCUAUGAUUUUAGUUGAGAGAAGGAGGAUUGCUGU [SS-NG3-LRO10] (Eterna round: R96, puzzle: Same State NG 3)",
    "readout": "apparent KD of MS2 coat protein",
    "observed result": 193
  },
  {
    "residues": "GCUCGGCUGAUGGCCUACAUGAGGAUCACCCAUGUGAGUGGGCAGGAUAUCUAGAUUCAGGAUGUAGAGAAGGGCCUGCCGAGC [SameState NG3 #39] (Eterna round: R96, puzzle: Same State NG 3)",
    "readout": "apparent KD of MS2 coat protein",
    "observed result": 1500
  }
]
